Target: Ba/F3 cell EGFR Exon20 ins NPH (Homo sapiens, UniProt P00533, INS773NPH)
Construct: expressed in transfected cells; host or cells: Ba/F3
Assay: Ba/F3 cell proliferation suppression, EGFR Exon20 ins NPH
Assay type: cell-based
Details: GI50 class; Ba/F3 cell line with NPH inserted at Exon20 of EGFR; 72 hours
Measure: Ba/F3 (NPH) Activity

Completed entries (count: 4):
C=CC(=O)Nc1cc(Nc2cc(N3OCC[C@@H]3c3cccc(C)c3F)ncn2)c(OC)cc1N1CCC(N2CCN(CC)CC2)CC1 [compound 318] : A (GI50 < 50 nM)
C=CC(=O)Nc1cc(Nc2cc(N3OCC[C@@H]3c3cccc(Cl)c3C)ncn2)c(OC)cc1N1CCC(N2C[C@H]3C[C@@H]2CO3)CC1 [compound 532] : A (GI50 < 50 nM)
C=CC(=O)Nc1cc(Nc2cc(N3OCC[C@@H]3c3cccc(Cl)c3Cl)ncn2)c(OC)cc1N1CCC(N2C[C@@H]3C[C@H]2CN3CC)CC1 [compound 607] : A (GI50 < 50 nM)
C=CC(=O)Nc1cc(Nc2cc(N3OCC[C@@H]3c3cccc(C)c3F)ncn2)c(OC)cc1N1CC[C@@H](N(C)C)C1 [compound 860] : A (GI50 < 50 nM)

Now for a further compound.
Give the measured Ba/F3 (NPH) Activity of C=CC(=O)Nc1cc(Nc2cc(N3OCC[C@@H]3c3cc(F)cc(F)c3)ncn2)c(OC)cc1N1CCC(N2CC3(COC3)C2)CC1 [Example 103] .
A (GI50 < 50 nM)

###

Target: Ba/F3 cell HER2 Exon20 ins YVMA (Homo sapiens, UniProt P04626, INS775YVMA)
Construct: expressed in transfected cells; host or cells: Ba/F3
Sequence (P04626 with tags, fused parts or gaps INS775YVMA): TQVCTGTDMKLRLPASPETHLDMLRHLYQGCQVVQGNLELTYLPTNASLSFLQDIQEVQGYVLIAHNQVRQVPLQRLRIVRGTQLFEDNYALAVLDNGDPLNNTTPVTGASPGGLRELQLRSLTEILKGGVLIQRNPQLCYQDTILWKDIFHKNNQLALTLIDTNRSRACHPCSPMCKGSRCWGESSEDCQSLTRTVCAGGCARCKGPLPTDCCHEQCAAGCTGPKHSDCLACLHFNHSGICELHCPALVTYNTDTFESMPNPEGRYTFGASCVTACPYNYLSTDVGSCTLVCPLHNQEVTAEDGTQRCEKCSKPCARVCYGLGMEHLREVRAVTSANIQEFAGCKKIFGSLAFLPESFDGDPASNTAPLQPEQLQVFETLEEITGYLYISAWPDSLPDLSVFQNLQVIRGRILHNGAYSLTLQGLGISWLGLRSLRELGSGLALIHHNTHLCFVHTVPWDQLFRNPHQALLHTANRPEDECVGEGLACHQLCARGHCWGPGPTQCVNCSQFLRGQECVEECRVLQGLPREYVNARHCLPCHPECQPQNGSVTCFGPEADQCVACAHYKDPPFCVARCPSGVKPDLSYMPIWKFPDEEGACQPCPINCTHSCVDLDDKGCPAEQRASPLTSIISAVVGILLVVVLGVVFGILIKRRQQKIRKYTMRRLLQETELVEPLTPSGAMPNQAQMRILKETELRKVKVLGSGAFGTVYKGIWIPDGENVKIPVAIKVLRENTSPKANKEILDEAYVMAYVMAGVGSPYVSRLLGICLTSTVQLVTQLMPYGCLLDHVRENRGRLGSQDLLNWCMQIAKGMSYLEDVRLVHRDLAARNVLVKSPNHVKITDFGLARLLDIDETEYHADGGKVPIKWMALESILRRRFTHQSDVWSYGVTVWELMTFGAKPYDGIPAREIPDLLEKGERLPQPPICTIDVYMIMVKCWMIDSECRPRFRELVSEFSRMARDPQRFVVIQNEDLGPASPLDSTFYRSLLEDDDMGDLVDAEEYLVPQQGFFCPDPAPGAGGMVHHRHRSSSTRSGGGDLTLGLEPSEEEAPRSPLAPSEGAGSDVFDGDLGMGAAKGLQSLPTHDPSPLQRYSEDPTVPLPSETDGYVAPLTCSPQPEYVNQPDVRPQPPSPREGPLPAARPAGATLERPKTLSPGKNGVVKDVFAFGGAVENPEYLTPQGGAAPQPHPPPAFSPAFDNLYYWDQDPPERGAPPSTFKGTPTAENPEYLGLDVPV
Assay: Ba/F3 cell proliferation suppression, HER2 Exon20 ins YVMA
Format: cell-based
Details: 72 hours after treatment, CellTiter-Glo
Experimental: The following experiment was carried out to evaluate the suppression activity of the compounds according to the present invention against proliferation of Ba/F3 and lung cancer cells which express EGFR mutations. Of the cancer cell lines expressing the EGFR gene, A549 was cultured after adding 10% FBS (HyClone) to DMEM (Invitrogen), and RPMI-1640 (Invitrogen) with 10% FBS was used for the other cancer cells. […] The result was calculated as a cell growth ratio (%) compared to a control. […]
Measure: GI50

C=CC(=O)Nc1cc(Nc2cc(N3OCC[C@@H]3c3ccccc3)ncn2)c(OC)cc1N1CC[C@@H](N(C)C)C1 : < 0.05 µM

Give the measured GI50 of `C=CC(=O)Nc1cc(Nc2cc(N3OCC[C@@H]3c3cc(F)cc(F)c3)ncn2)c(OC)cc1N1CCC(N2C[C@@H]3C[C@H]2CO3)CC1` .
< 0.05 µM

Give the measured GI50 of `C=CC(=O)Nc1cc(Nc2cc(N3OCC[C@@H]3c3ccccc3)ncn2)c(OC)cc1N(C)CCN(C)C` .
< 0.05 µM

Give the measured GI50 of `C=CC(=O)Nc1cc(Nc2cc(N3OCC[C@@H]3c3cc(F)cc(F)c3)ncn2)c(OC)cc1N1CCC(N2CCN(CC)CC2)CC1` .
< 0.05 µM

Give the measured GI50 of `C=CC(=O)Nc1cc(Nc2cc(N3OCC[C@@H]3c3cc(F)cc(F)c3)ncn2)c(OC)cc1N1CCC(N2CCOCC2)CC1` .
< 0.05 µM

Give the measured GI50 of `C=CC(=O)Nc1cc(Nc2cc(N3OCC[C@@H]3c3cc(F)cc(F)c3)ncn2)c(OC)cc1N1CCC(N2C[C@H]3C[C@@H]2CO3)CC1` .
< 0.05 µM

Give the measured GI50 of `C=CC(=O)Nc1cc(Nc2cc(N3OCC[C@H]3c3ccccc3)ncn2)c(OC)cc1N1CCN(C)CC1` .
0.05 to 0.5 µM

###

% inhibition of scanMAX Kinase profiling reference
Test system: scanMAX kinase panel (EGFR mutant, ERBB2, ERBB4)
Test: DiscoverX (eurofin) KINOMEscan (scanMAX platform) kinase profiling
Format: binding
Settings: EGFR(G719C)
Output spec: scalar in %, unitless text.

Completed entries (count: 3):
C=CC(=O)Nc1cc(Nc2cc(N3OCC[C@@H]3c3ccccc3)ncn2)c(OC)cc1N1CCC(N2CCN(C)CC2)CC1 [Example 9] : 100
C=CC(=O)Nc1cc(Nc2cc(N3OCC[C@@H]3c3cc(F)cc(F)c3)ncn2)c(OC)cc1N1CCC(N2CCN(C3CC3)CC2)CC1 [Example 57] : 100
C=CC(=O)Nc1cc(Nc2cc(N3OCC[C@@H]3c3cc(F)cc(F)c3)ncn2)c(OC)cc1N1CCC(N2CCN(CC)CC2)CC1 [Example 236] : 100

Give the measured % inhibition of scanMAX Kinase profiling of C=CC(=O)Nc1cc(Nc2cc(N3OCC[C@@H]3c3cc(F)cc(F)c3)ncn2)c(OC)cc1N1CCC(N2C[C@H]3C[C@@H]2CO3)CC1 [Example 238] .
100

Give the measured % inhibition of scanMAX Kinase profiling of C=CC(=O)Nc1cc(Nc2cc(N3OCC[C@@H]3c3cc(F)cc(F)c3)ncn2)c(OC)cc1N1CCC(N2C[C@@H]3C[C@H]2CO3)CC1 [Example 239] .
100

Give the measured % inhibition of scanMAX Kinase profiling of C=CC(=O)Nc1cc(Nc2cc(N3OCC[C@@H]3c3cc(F)cc(F)c3)ncn2)c(OC)cc1N1CCC(N2CCOCC2)CC1 [Example 30] .
100

Give the measured % inhibition of scanMAX Kinase profiling of C=CC(=O)Nc1cc(Nc2cc(N3OCC[C@@H]3c3ccccc3)ncn2)c(OC)cc1N1CCN(C)CC1 [Example 6] .
100

Give the measured % inhibition of scanMAX Kinase profiling of C=CC(=O)Nc1cc(Nc2cc(N3OCC[C@@H]3c3cc(F)cc(F)c3)ncn2)c(OC)cc1N1CCC(N(C)C)CC1 [Example 241] .
100

Give the measured % inhibition of scanMAX Kinase profiling of C=CC(=O)Nc1cc(Nc2cc(N3OCC[C@@H]3c3ccccc3)ncn2)c(OC)cc1N(C)CCN(C)C [Example 4] .
100

###

Biological target: Ba/F3 cell EGFR Exon20 ins NPH (Homo sapiens, UniProt P00533, INS773NPH)
Construct: expressed in transfected cells; host or cells: Ba/F3
Assay: Ba/F3 cell proliferation suppression, EGFR Exon20 ins NPH
Format: cell-based
Details: GI50 class; Ba/F3 cell line with NPH inserted at Exon20 of EGFR; 72 hours
Measure: Ba/F3 (NPH) Activity

C=CC(=O)Nc1cc(Nc2cc(N3OCC[C@@H]3c3cccc(F)c3)ncn2)c(OC)cc1N1CC[C@H](N(C)C)C1 [compound 839] : A (GI50 < 50 nM)
C=CC(=O)Nc1cc(Nc2cc(N3OCC[C@@H]3Cc3cccc(F)c3Cl)ncn2)c(OC)cc1N1CCC(N2CCN(C3CC3)[C@@H](C)C2)CC1 [compound 1037] : A (GI50 < 50 nM)
C=CC(=O)Nc1cc(Nc2cc(N3OCC[C@@H]3c3cc(F)cc(F)c3)ncn2)c(OC)cc1N1CCC(N2CCN(CCN(C)C)CC2)CC1 [compound 753] : A (GI50 < 50 nM)

###

System: scanMAX kinase panel (EGFR mutant, ERBB2, ERBB4)
Experiment: DiscoverX (eurofin) KINOMEscan (scanMAX platform) kinase profiling
Assay type: binding
Details: EGFR(S752-I759del)
% inhibition of scanMAX Kinase profiling reference

Completed entries (count: 3):
C=CC(=O)Nc1cc(Nc2cc(N3OCC[C@@H]3c3ccccc3)ncn2)c(OC)cc1N1CCN(C)CC1 : 96%
C=CC(=O)Nc1cc(Nc2cc(N3OCC[C@@H]3c3cc(F)cc(F)c3)ncn2)c(OC)cc1N1CCC(N2CCOCC2)CC1 : 99%
C=CC(=O)Nc1cc(Nc2cc(N3OCC[C@@H]3c3cc(F)cc(F)c3)ncn2)c(OC)cc1N1CCC(N2CCN(CC)CC2)CC1 : 89%

Give the measured % inhibition of scanMAX Kinase profiling of `C=CC(=O)Nc1cc(Nc2cc(N3OCC[C@@H]3c3ccccc3)ncn2)c(OC)cc1N(C)CCN(C)C` .
100%

Give the measured % inhibition of scanMAX Kinase profiling of `C=CC(=O)Nc1cc(Nc2cc(N3OCC[C@@H]3c3ccccc3)ncn2)c(OC)cc1N1CCC(N2CCN(C)CC2)CC1` .
100%

Give the measured % inhibition of scanMAX Kinase profiling of `C=CC(=O)Nc1cc(Nc2cc(N3OCC[C@@H]3c3cc(F)cc(F)c3)ncn2)c(OC)cc1N1CCC(N2CCN(C3CC3)CC2)CC1` .
98%

Give the measured % inhibition of scanMAX Kinase profiling of `C=CC(=O)Nc1cc(Nc2cc(N3OCC[C@@H]3c3cc(F)cc(F)c3)ncn2)c(OC)cc1N1CCC(N2C[C@H]3C[C@@H]2CO3)CC1` .
91%

Give the measured % inhibition of scanMAX Kinase profiling of `C=CC(=O)Nc1cc(Nc2cc(N3OCC[C@@H]3c3cc(F)cc(F)c3)ncn2)c(OC)cc1N1CCC(N2C[C@@H]3C[C@H]2CO3)CC1` .
82%
